Measured folding enthalpy accompanies every entry in the list below.
# measurement protocol: folding enthalpy; higher = less favourable; fluorescence melt of hairpins on a sequencing array, two-state fit
# condition: sodium 0.088 M
Lab book: enter the figure in kcal/mol, no units written.

Worked examples, 5 sequences total:
>>> meas_value("GGTGTCGGAAACGACATC (.(((((....))))).)")
-26.8
>>> meas_value("GCAGTCGAAAGACCTTGC ((((((....)))..)))")
-13.3
>>> meas_value("GCGGAGCGAAAGCCGCGC (((..((....))..)))")
-21.1
>>> meas_value("GATCTAATCATAGATC ((((((....))))))")
-34.8
>>> meas_value("GTCCGGGGAAACCCGGGC (.(((((....))))).)")
-21.6

Any idea what its folding enthalpy is? The sequence is GATCTTTCCCAAGATC ((((((....))))))
-33.4

Try the sequence CGTCAGCGGAAACGCACG (((..(((....))))))
-15.4

Also check GATCTCTGTGGAGATC ((((((....))))))
-37.1

----------
# measurement protocol: folding enthalpy; higher = less favourable; fluorescence melt of hairpins on a sequencing array, two-state fit
# condition: sodium 0.088 M
quantity kind: folding enthalpy (kcal/mol)
Answer in kcal/mol, number only, no unit symbol.

>>> meas_value("GAGCTAGGAAACTAGCTC (((((((....)))))))")
-37.9
>>> meas_value("GATCTCAGCCGAGATC ((((((....))))))")
-39.6
>>> meas_value("CGCCACGGAAACGTTGCG (((.(((....))).)))")
-33.4
>>> meas_value("GAAGGTGCGAAAGCATTC (((..(((....))))))")
-6.16

What measured folding enthalpy goes with GCTCACGAAAGTGTTAGC ((((((....)))..))) ?
-21.6

----------
A collection of sequences and their measured folding enthalpy
# measurement protocol: folding enthalpy; higher = less favourable; fluorescence melt of hairpins on a sequencing array, two-state fit
# condition: sodium 0.088 M
Give the quantity in kcal/mol, number only.

Field: example entries. Status: answers known.
>>> meas_value("GCCCTGCGAAAGCTTGGC (((..((....))..)))")
-23
>>> meas_value("GGGTGGGGAAACCCGTCC ((..(((....)))..))")
-19
>>> meas_value("GATCAATAGATTGATC ((((((....))))))")
-31

# lookup: folding enthalpy of GTGCAGCGAAAGCTCAC (((.(((....))))))
-27

What do you have for GACGGCGAAAGCCTTGTC ((((((....)))..))) ?
-12.3

# iterate: GGAGTTCCGAAAGGATCC (((..(((....))))))
-12.8

Queued: GGCACCACGAAAGTGGCC (((..(((....))))))
-11.6

Next entry: GACACGGGAAACCGTGCC (.(((((....))))).)
-13.8

And then GCCTGTCCGAAAGGAGGC (((..(((....)))))) , what is it?
-19.2

Same for GATCGCACGGCGATC ((((((...))))))
-33

Repeat for the following sequence: GCGAACACTCGC ((((....))))
-23.5

How about GTGCGGGGAAACCCGTGC (..((((....))))..) ?
-19.2

Likewise for GCACGGCGAAAGCGGCGC ((.(.((....)).).)) ?
-24.1

// same read-out, input: GATCTTTCGTAAGATC ((((((....))))))
-30.6
